- TARGET OR SYSTEM: Progesterone receptor (Rattus norvegicus)
- Sequence (Q63449 whole entry): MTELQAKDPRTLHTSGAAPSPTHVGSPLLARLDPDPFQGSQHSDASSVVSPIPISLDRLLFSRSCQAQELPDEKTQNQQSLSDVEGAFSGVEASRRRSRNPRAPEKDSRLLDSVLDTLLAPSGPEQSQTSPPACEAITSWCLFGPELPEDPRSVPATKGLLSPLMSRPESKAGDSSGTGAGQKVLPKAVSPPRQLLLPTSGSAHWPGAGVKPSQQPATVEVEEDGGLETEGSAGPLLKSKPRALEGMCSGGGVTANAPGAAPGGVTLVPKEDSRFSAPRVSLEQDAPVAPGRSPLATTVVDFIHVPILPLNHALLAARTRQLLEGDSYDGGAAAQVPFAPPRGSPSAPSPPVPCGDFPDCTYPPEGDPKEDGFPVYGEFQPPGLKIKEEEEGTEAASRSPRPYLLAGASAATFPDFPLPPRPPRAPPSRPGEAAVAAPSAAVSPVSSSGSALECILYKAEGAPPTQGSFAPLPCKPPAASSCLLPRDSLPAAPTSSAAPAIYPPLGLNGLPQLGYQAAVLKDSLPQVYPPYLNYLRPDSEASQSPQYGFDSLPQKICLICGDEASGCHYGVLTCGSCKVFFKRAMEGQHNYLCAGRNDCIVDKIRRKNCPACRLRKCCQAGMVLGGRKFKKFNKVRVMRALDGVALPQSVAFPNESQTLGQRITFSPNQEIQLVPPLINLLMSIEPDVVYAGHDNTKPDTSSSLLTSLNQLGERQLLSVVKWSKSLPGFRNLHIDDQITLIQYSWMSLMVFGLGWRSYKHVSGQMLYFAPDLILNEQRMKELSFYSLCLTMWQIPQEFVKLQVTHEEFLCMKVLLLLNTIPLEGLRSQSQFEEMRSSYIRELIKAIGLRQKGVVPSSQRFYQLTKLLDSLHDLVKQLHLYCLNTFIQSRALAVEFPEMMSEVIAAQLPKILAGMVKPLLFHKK
- TEST DESCRIPTION: Inhibition of rat PR
ASSAY ENDPOINT: pKi
Please treat pKi as minus the base-10 logarithm of the molar concentration.

Recorded pKi for C[C@@H]1CN(c2ccc(C#N)c(C(F)(F)F)c2)[C@@H](C)CN1C(=O)Nc1ccc(C(F)(F)F)nc1 (racemic) with Progesterone receptor (Rattus norvegicus), please? 5.48

Recorded pKi for CC(O)(CS(=O)(=O)c1ccc(F)cc1)C(=O)Nc1ccc(C#N)c(C(F)(F)F)c1 (configuration not stated) [BICALUTAMIDE] with Progesterone receptor (Rattus norvegicus), please? 5.14
